Origin of values: ChEMBL document CHEMBL1765070

biological target: TGF-beta receptor type-1 (Homo sapiens, UniProt P36897); experiment: Inhibition of ALK5; conditions: read-out: pIC50 (converted)
Sequence (P36897 whole entry): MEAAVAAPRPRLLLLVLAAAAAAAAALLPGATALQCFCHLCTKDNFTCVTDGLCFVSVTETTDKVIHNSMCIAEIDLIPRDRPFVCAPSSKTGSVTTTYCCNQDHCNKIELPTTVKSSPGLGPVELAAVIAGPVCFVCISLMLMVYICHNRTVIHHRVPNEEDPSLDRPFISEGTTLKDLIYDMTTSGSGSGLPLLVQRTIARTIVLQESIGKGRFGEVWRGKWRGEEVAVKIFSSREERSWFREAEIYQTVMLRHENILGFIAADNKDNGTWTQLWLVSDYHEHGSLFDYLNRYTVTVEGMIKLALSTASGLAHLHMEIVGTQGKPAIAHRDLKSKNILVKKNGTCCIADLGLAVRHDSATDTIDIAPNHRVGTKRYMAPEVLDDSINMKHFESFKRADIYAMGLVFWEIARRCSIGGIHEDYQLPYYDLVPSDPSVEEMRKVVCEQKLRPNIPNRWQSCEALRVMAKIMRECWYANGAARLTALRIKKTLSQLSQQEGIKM
READOUT_NAME: IC50

Reported IC50 ( "C[C@H]1COCCN1c1cc(-c2ccc3c(N)n[nH]c3c2)nc(N)n1" ) = > 10 µM

Reported IC50 ( "C[C@H]1CC[C@@H](C(=O)Nc2ccccc2)CN1c1cc(-c2ccc3c(N)n[nH]c3c2)nc(N)n1" ) = > 10 µM

Reported IC50 ( "C[C@@H]1C[C@@H](NC(=O)OC(C)(C)C)CN(c2cc(-c3ccc4c(N)[nH]nc4c3)nc(N)n2)C1" ) = > 10 µM

Reported IC50 ( "Nc1nc(-c2ccc3c(N)n[nH]c3c2)cc(N2CCO[C@@H](C(=O)Nc3ccccc3)C2)n1" ) = > 10 µM

Reported IC50 ( "CCNc1cc(-c2ccc3c(N)[nH]nc3c2)nc(N)n1" ) = 0.501 µM

Reported IC50 ( "C[C@@H]1CC[C@H](C(=O)Nc2ccccc2)CN1c1cc(-c2ccc3c(N)[nH]nc3c2)nc(N)n1" ) = 6.31 µM

Reported IC50 ( CC(C)(C)OC(=O)NC1CCCN(c2cc(-c3ccc4c(N)n[nH]c4c3)nc(N)n2)C1 (racemic) ) = > 10 µM

Reported IC50 ( "Nc1nc(-c2ccc3c(N)[nH]nc3c2)cc(N2CCO[C@H](C(=O)Nc3ccccc3)C2)n1" ) = > 10 µM

Reported IC50 ( C[C@H]1CC[C@@H](NC(=O)OC(C)(C)C)CN1c1cc(-c2ccc3c(N)[nH]nc3c2)nc(N)n1 (racemic) ) = > 10 µM

Reported IC50 ( "C[C@@H]1CC[C@H](C(=O)NC2CCCCC2)CN1c1cc(-c2ccc3c(N)n[nH]c3c2)nc(N)n1" ) = > 10 µM

Reported IC50 ( "CC(C)[C@@H]1COCCN1c1cc(-c2ccc3c(N)n[nH]c3c2)nc(N)n1" ) = > 10 µM

Reported IC50 ( "CC(C)(C)OC(=O)N[C@H]1CCCN(c2cc(-c3ccc4c(N)n[nH]c4c3)nc(N)n2)C1" ) = > 10 µM

Reported IC50 ( "Nc1nc(-c2ccc3c(N)n[nH]c3c2)cc(N2CCC[C@H](C(=O)NC3CCCC3)C2)n1" ) = > 10 µM

Reported IC50 ( "Nc1nc(-c2ccc3c(N)n[nH]c3c2)cc(N2CCCCC2)n1" ) = > 10 µM

Reported IC50 ( "Nc1nc(-c2ccc3c(N)n[nH]c3c2)cc(N2CCC[C@@H](C(=O)Nc3ccccc3)C2)n1" ) = > 10 µM

Reported IC50 ( "CC(C)Nc1cc(-c2ccc3c(N)n[nH]c3c2)nc(N)n1" ) = 0.501 µM

Reported IC50 ( "CNc1cc(-c2ccc3c(N)n[nH]c3c2)nc(N)n1" ) = 0.398 µM

Reported IC50 ( "C[C@@H]1CC[C@H](NC(=O)OC(C)(C)C)CN1c1cc(-c2ccc3c(N)n[nH]c3c2)nc(N)n1" ) = > 10 µM

Reported IC50 ( "Nc1nc(-c2ccc3c(N)[nH]nc3c2)cc(N2CCOCC2)n1" ) = > 10 µM

Reported IC50 ( "Nc1nccc(-c2ccc3c(N)n[nH]c3c2)n1" ) = 1.58 µM

Reported IC50 ( "Nc1nc(NC2CCCC2)cc(-c2ccc3c(N)n[nH]c3c2)n1" ) = 0.398 µM

Reported IC50 ( "CNc1nc(-c2ccc3c(N)n[nH]c3c2)cc(N2C[C@@H](C(=O)Nc3ccccc3)CC[C@H]2C)n1" ) = > 10 µM

Reported IC50 ( "Nc1nc(-c2ccccc2)cc(-c2ccc3c(N)n[nH]c3c2)n1" ) = 3.16 µM

Reported IC50 ( "CN(C)c1cc(-c2ccc3c(N)n[nH]c3c2)nc(N)n1" ) = 5.01 µM

Reported IC50 ( "COc1cc(-c2ccc3c(N)n[nH]c3c2)nc(N)n1" ) = 3.16 µM

Reported IC50 ( "CC[C@@H]1COCCN1c1cc(-c2ccc3c(N)n[nH]c3c2)nc(N)n1" ) = > 10 µM

Reported IC50 ( "C[C@@H]1CO[C@H](C(=O)Nc2ccccc2)CN1c1cc(-c2ccc3c(N)n[nH]c3c2)nc(N)n1" ) = > 10 µM

Reported IC50 ( "CNc1nc(-c2ccc3c(N)n[nH]c3c2)cc(N2C[C@@H](C(=O)NC3CCCCC3)OC[C@H]2C)n1" ) = > 10 µM

Reported IC50 ( "CC[C@@H]1CO[C@H](C(=O)NC2CCCCC2)CN1c1cc(-c2ccc3c(N)n[nH]c3c2)nc(NC)n1" ) = > 10 µM

Reported IC50 ( "CC[C@@H]1CO[C@H](C(=O)Nc2ccccc2)CN1c1cc(-c2ccc3c(N)n[nH]c3c2)nc(NC)n1" ) = > 10 µM

Reported IC50 ( "CNc1nc(-c2ccc3c(N)n[nH]c3c2)cc(N2C[C@@H](C(=O)NC3CCCCC3)CC[C@H]2C)n1" ) = > 10 µM

Reported IC50 ( Nc1nc(-c2ccc3c(N)n[nH]c3c2)cc(N2CCCC(NC(=O)c3ccccc3)C2)n1 (racemic) ) = > 10 µM

Reported IC50 ( "CC(C)(C)OC(=O)N[C@@H]1CCCN(c2cc(-c3ccc4c(N)n[nH]c4c3)nc(N)n2)C1" ) = > 10 µM

Reported IC50 ( C[C@@H]1CC[C@@H](C(=O)Nc2ccccc2)CN1c1cc(-c2ccc3c(N)n[nH]c3c2)nc(N)n1 (racemic) ) = > 10 µM

Reported IC50 ( "Nc1nc(-c2ccc3c(N)n[nH]c3c2)cc(N2CCC[C@H](C(=O)NC3CCCCC3)C2)n1" ) = > 10 µM

Reported IC50 ( "Nc1nc(-c2ccc3c(N)n[nH]c3c2)cc(N2CCCC2)n1" ) = > 10 µM

Reported IC50 ( "C[C@@H]1COCCN1c1cc(-c2ccc3c(N)[nH]nc3c2)nc(N)n1" ) = > 10 µM

Reported IC50 ( "Cc1cc(-c2ccc3c(N)n[nH]c3c2)nc(N)n1" ) = 7.94 µM

----------
assay: Antiproliferative activity against human OCI-AML3 cells; format: functional, cell-based; conditions: OCI-AML-3
Please use MET for IC50 under 400 nM and NOT MET for everything else, ties included.

# check: IC50 < 400 nM for "C[C@@H]1C[C@@H](N(C)C(=O)OC(C)(C)C)CN(c2cc(-c3ccc4c(N)n[nH]c4c3)nc(N)n2)C1"
MET

# check: IC50 < 400 nM for "CNc1nc(-c2ccc3c(N)n[nH]c3c2)cc(N2C[C@@H](C(=O)NC3CCCCC3)CC[C@H]2C)n1"
NOT MET

# check: IC50 < 400 nM for "CNc1nc(-c2ccc3c(N)n[nH]c3c2)cc(N2C[C@@H](C(=O)Nc3ccccc3)CC[C@H]2C)n1"
NOT MET

# check: IC50 < 400 nM for "CNc1nc(-c2ccc3c(N)n[nH]c3c2)cc(N2C[C@@H](C(=O)NC3CCCCC3)OC[C@H]2C)n1"
NOT MET

# check: IC50 < 400 nM for "CC[C@@H]1CO[C@H](C(=O)NC2CCCCC2)CN1c1cc(-c2ccc3c(N)n[nH]c3c2)nc(NC)n1"
NOT MET

----------
target: Inhibitor of nuclear factor kappa-B kinase subunit alpha (Homo sapiens, UniProt O15111); assay: Inhibition of IKK1
Sequence (O15111 whole entry): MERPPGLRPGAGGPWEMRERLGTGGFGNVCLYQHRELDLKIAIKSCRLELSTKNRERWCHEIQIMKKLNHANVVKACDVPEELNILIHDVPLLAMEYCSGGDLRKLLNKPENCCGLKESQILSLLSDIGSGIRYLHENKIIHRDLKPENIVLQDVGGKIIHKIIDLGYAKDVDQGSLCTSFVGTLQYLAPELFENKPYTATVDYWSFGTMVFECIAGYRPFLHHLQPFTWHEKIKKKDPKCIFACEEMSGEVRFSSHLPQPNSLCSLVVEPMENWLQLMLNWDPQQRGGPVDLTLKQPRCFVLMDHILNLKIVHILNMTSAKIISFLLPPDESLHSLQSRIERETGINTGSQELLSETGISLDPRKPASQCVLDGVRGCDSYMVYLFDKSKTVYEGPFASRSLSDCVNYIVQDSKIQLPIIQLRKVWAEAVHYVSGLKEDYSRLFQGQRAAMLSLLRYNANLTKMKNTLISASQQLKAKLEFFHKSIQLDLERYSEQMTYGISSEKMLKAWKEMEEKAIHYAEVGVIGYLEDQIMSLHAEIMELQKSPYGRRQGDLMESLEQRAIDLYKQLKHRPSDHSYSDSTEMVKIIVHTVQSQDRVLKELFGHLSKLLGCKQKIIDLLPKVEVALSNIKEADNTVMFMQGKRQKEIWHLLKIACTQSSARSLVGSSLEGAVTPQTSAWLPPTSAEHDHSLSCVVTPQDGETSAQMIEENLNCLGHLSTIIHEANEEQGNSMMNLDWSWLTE
pIC50: −log10 of the molar value.
READOUT_NAME: pIC50

Reported pIC50 ( "CNc1nc(-c2ccc3c(N)n[nH]c3c2)cc(N2C[C@@H](C(=O)NC3CCCCC3)CC[C@H]2C)n1" ) = < 4.60

----------
Exercise: for every item that follows, state its recorded IC50.
Target: 3-phosphoinositide-dependent protein kinase 1 (Homo sapiens, UniProt O15530)
Sequence (O15530 whole entry): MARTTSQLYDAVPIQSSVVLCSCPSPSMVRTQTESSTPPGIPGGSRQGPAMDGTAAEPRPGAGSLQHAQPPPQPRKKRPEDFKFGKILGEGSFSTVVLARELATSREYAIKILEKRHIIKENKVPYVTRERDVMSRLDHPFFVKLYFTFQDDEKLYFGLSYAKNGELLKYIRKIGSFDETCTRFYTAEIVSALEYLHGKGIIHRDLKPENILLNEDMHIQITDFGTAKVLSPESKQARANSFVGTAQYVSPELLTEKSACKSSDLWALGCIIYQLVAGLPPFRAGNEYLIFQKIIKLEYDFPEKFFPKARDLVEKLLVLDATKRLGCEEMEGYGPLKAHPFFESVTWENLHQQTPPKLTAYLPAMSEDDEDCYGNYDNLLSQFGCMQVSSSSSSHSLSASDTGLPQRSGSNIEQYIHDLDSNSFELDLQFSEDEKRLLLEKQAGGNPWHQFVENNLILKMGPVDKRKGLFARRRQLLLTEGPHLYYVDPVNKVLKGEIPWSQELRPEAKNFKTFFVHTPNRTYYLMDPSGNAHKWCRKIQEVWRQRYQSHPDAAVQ
Experiment: Inhibition of PDK1
Answer in nM, number only, no unit symbol.

Reported IC50 ( "Nc1nc(-c2ccc3c(N)n[nH]c3c2)cc(N2CCCCC2)n1" ) = 251

Reported IC50 ( "Nc1nc(-c2ccc3c(N)n[nH]c3c2)cc(N2CCO[C@@H](C(=O)Nc3ccccc3)C2)n1" ) = 1000

Reported IC50 ( "CNc1cc(-c2ccc3c(N)n[nH]c3c2)nc(N)n1" ) = 79.4

Reported IC50 ( "Nc1nc(-c2ccc3c(N)n[nH]c3c2)cc(N2CCC[C@H](C(=O)NC3CCCCC3)C2)n1" ) = 63.1

Reported IC50 ( "CC[C@@H]1CO[C@H](C(=O)NC2CCCCC2)CN1c1cc(-c2ccc3c(N)n[nH]c3c2)nc(NC)n1" ) = 6.31
